The reader will find reported pIC50 values listed item by item below.
- target: CCK receptor (pancreas) (Rattus norvegicus, UniProt P30551)
- Construct: The whole pancreas was dissected free of fat tissue and was homogenized; from tissue; host or cells: rat whole pancreas, homogenate membranes
- Sequence (P30551 whole entry): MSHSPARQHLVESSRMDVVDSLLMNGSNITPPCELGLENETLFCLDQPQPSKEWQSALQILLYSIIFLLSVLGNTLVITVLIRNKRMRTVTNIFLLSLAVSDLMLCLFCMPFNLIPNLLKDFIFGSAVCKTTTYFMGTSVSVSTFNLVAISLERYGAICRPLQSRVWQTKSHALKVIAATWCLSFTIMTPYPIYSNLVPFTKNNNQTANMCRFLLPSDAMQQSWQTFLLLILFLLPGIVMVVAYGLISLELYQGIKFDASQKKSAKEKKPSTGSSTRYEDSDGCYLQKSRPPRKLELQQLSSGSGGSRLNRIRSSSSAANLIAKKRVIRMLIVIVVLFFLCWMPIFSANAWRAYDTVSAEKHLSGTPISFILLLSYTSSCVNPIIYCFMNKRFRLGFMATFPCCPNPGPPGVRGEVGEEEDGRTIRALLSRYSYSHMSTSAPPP
- method: CCK Receptor Binding (Pancreas)
- Set-up: species or system rat (male Sprague-Dawley)
pIC50: −log10 of the molar value.

Example compounds with recorded pIC50:
O=C(Nc1ccc(Cl)cc1)NC1N=C(c2ccccc2)c2ccccc2N(CC(O)CN2CCCC2)C1=O (stereo not drawn) ... < 5.52
CN(C)CC(O)CN1C(=O)C(NC(=O)Nc2ccc(Cl)cc2)N=C(c2ccccc2)c2ccccc21 (stereo not drawn) ... < 5.52

Alright, here's another compound for you.
Endpoint output: pIC50 of O=C(Nc1ccc(Cl)cc1)NC1N=C(c2ccccc2)c2ccccc2N(Cc2nnn[nH]2)C1=O (stereo not drawn) . Value? 5.67
